viability at 0.05 ug/mL values, listed per item
assay: Cell proliferation of mouse […] cells at 0.05 ug/mL by MTT assay; assay type: ADME, cell-based, J774.A1; conditions: J774A.1 cells, read-out: Activity
Response body: numeric value in %, unit text excluded.

# lookup: viability at 0.05 ug/mL of "CCCCCCCCCCCCCCN(CCO)C[C@H]1O[C@@H]2OC(C)(C)O[C@@H]2[C@H]2OC(C)(C)O[C@H]21"
135

Item under review: "CCCCCCCCCCCCN(CCO)C[C@H]1O[C@@H]2OC(C)(C)O[C@@H]2[C@H]2OC(C)(C)O[C@H]21" . Reported viability at 0.05 ug/mL?
98.9

Quick one: viability at 0.05 ug/mL of CCCCCCCCCCC(O)CN (centres undefined) ?
112

Entry under review: "CCCCCCCCCCCCNCCO" . Reported viability at 0.05 ug/mL?
77.6

###

tested on: J774.A1; assay: Cytotoxicity against mouse […] cells at 0.005 ug/mL by MTT assay; format: cell-based
measured_metric: Activity (%)
Report the figure in % without appending any unit label.

[[record]]
smiles = "CCCCCCCCCCCCNCCO"
test_system = "J774.A1"
unit_of_measurement = "%"
recorded_number = 12.1


Let's switch to this compound now.
Fill blank: measured Activity of the compound "CCCCCCCCCCCCCCCCN(CCO)C[C@H]1O[C@@H]2OC(C)(C)O[C@@H]2[C@H]2OC(C)(C)O[C@H]21" is ____.
10.6

###

Collected Activity values appear next to each entry.
test system: J774.A1; assay: Cytotoxicity against mouse […] cells at 0.05 ug/mL by MTT assay; assay type: cell-based
Write the value in % as a bare number.

[[record]]
smiles = "CCCCCCCCCCCCCCCCN(CCO)C[C@H]1O[C@@H]2OC(C)(C)O[C@@H]2[C@H]2OC(C)(C)O[C@H]21"
unit_of_measurement = "%"
recorded_number = 16.3


Now look at this entry.
What measured Activity is associated with "CCCCCCCCCCCCNCCO" on J774.A1?
8.4

###

tested on: Mycobacterium tuberculosis; assay: Antimycobacterial activity against Mycobacterium tuberculosis H37Rv by microplate alamar blue assay; format: functional
Reported MIC values for the following molecules.
Enter your answer as a number in µM; do not include the unit.

Example cases with answers are listed next.
[[record]]
molecule = "CCCCCCCCCCCCCCNCCO"
measured_metric = "MIC"
recorded_number = 51

[[record]]
molecule = "CCCCCCCCCCCCNCCO"
measured_metric = "MIC"
recorded_number = 27


What value of MIC has been recorded for this entry: "CCCCCCCCN(CCO)C[C@H]1O[C@@H]2OC(C)(C)O[C@@H]2[C@H]2OC(C)(C)O[C@H]21"
241

Report MIC for "CCCCCCCCCCNCCO" please.
248

###

test: Cell proliferation of mouse […] cells at 0.005 ug/mL by MTT assay; assay type: ADME, cell-based, J774.A1; settings: J774A.1 cells, read-out: Activity
measured_metric: viability at 0.005 ug/mL (%)
// return numeric value only (unit: %, not printed)

Study these solved cases before continuing.
[[record]]
molecule = "CCCCCCCCCCCCNCCO"
unit_of_measurement = "%"
recorded_number = 92.7

[[record]]
molecule = "CCCCCCCCCCCCCCN(CCO)C[C@H]1O[C@@H]2OC(C)(C)O[C@@H]2[C@H]2OC(C)(C)O[C@H]21"
unit_of_measurement = "%"
recorded_number = 113

[[record]]
molecule = "CCCCCCCCCCCCN(CCO)C[C@H]1O[C@@H]2OC(C)(C)O[C@@H]2[C@H]2OC(C)(C)O[C@H]21"
unit_of_measurement = "%"
recorded_number = 98.3

[[record]]
molecule = "CCCCCCCCCCC(O)CN (stereo not given)"
unit_of_measurement = "%"
recorded_number = 110


Pending molecule:
Can you look up the measured viability at 0.005 ug/mL of "CCCCCCCCCCCCCCCCN(CCO)C[C@H]1O[C@@H]2OC(C)(C)O[C@@H]2[C@H]2OC(C)(C)O[C@H]21" for me?
104
